Ref: ChEMBL document CHEMBL5316297

# Test system: Mus musculus
# assay_details: Antidiabetic activity against high fat diet-STZ-induced diabetic Swiss albino mouse model assessed as reduction in blood glucose level at 0.2 mmol/Kg/day, po administered for 14 days relative to glimepiride
# Type: functional
# Parameters: scale not given: the % may be the effect or the level left
# conditions_used: time 14 day
property: Activity (%)
Write the answer as a number in %, unit excluded.

[Q] Item CCOC(=O)C1=C(C)NC(C)=C(C(=O)OCC)C1c1ccc2c(c1)OCCO2 has what recorded Activity?
[A] 148

[Q] What value of measured Activity is listed for COCCOC(=O)C1=C(C)NC(C)=C(C(=O)OC)C1c1cccc2c1OCO2 (stereo not given) ?
[A] 40

[Q] State the recorded Activity for this entry: CC1=C(C(=O)OC(C)C)C(c2cccc3c2OCO3)C(C(=O)OC(C)C)=C(C)N1
[A] 30

[Q] Query: Activity; subject: COCCOC(=O)C1=C(C)NC(C)=C(C(=O)OC)C1c1ccc2c(c1)OCO2 (stereo not given)
[A] 38

[Q] Need Activity, item COC(=O)C1=C(C)NC(C)=C(C(=O)OC(C)C)C1c1ccc2c(c1)OCO2 (stereo not given)
[A] 54

[Q] Consider the molecule shown here: COC(=O)C1=C(C)NC(C)=C(C(=O)OC)C1c1cccc2c1OCO2 What is its recorded Activity?
[A] 184

[Q] Consider the molecule CCOC(=O)C1=C(C)NC(C)=C(C(=O)OC)C1c1ccc2c(c1)OCO2 (stereo not given) and give its measured Activity.
[A] 160

[Q] Value lookup for Activity; key = CCOC(=O)C1=C(C)NC(C)=C(C(=O)OC)C1c1cccc2c1OCO2 (stereo not given)
[A] 190

* * *

# assay_details: Toxicity in high fat diet-STZ-induced diabetic Swiss albino mouse model assessed as changes in body weight at 0.2 mmol/Kg/day, po administered for 14 days (reference value: 26.6 to 27.8 g)
# Format: organism-based
# conditions_used: in vivo, 336 h, time 14 day
property: Activity

[Q] Item COCCOC(=O)C1=C(C)NC(C)=C(C(=O)OCCOC)C1c1cccc2c1OCO2 has what recorded Activity?
[A] 27 g

[Q] Look up Activity: CC1=C(C(=O)OC(C)(C)C)C(c2ccc3c(c2)OCO3)C(C(=O)OC(C)(C)C)=C(C)N1
[A] 26.9 g

[Q] Bench note: what Activity did COC(=O)C1=C(C)NC(C)=C(C(=O)OC)C1c1ccc2c(c1)Cc1ccccc1-2 show?
[A] 29.2 g

[Q] # lookup: Activity of CCC1=C(C)CN(C(=O)NCCc2ccc(S(=O)(=O)NC(=O)N[C@H]3CC[C@H](C)CC3)cc2)C1=O [GLIMEPIRIDE]
[A] 30.92 g

* * *

# Test system: Mus musculus
# assay_details: Antidiabetic activity against high fat diet-STZ-induced diabetic Swiss albino mouse model assessed as reduction in blood glucose level at 0.2 mmol/Kg/day, po administered for 14 days relative to glimepiride
# Format: functional
# Parameters: scale not given: the % may be the effect or the level left
# conditions_used: time 14 day
property: Activity (%)
Report the value in % with no unit label.

[Q] // returns reported Activity for input CCOC(=O)C1=C(C)NC(C)=C(C(=O)OCC)C1c1ccc2c(c1)Cc1ccccc1-2
[A] 1

[Q] # query: Activity of entry COCCOC(=O)C1=C(C)NC(C)=C(C(=O)OCCOC)C1c1cccc2c1OCO2
[A] 90

[Q] If you can, please state the reported Activity value of COC(=O)C1=C(C)NC(C)=C(C(=O)OC)C1c1ccc2c(c1)Cc1ccccc1-2 .
[A] 1

[Q] For the compound CCOC(=O)C1=C(C)NC(C)=C(C(=O)OCCOC)C1c1cccc2c1OCO2 (stereo not given) , what Activity is on record?
[A] 134

[Q] // lookup Activity for CCOC(=O)C1=C(C)NC(C)=C(C(=O)OCc2ccccc2)C1c1cccc2c1OCO2 (stereo not given)
[A] 132

[Q] Any idea what its Activity is? The compound is COC(=O)C1=C(C)NC(C)=C(C(=O)OC(C)C)C1c1cccc2c1OCO2 (stereo not given)
[A] 60

[Q] Entry under review: CCOC(=O)C1=C(C)NC(C)=C(C(=O)OC)C1c1ccc2c(c1)OCCO2 (stereo not given) . Reported Activity?
[A] 151

[Q] // returns reported Activity for input CCOC(=O)C1=C(C)NC(C)=C(C(=O)OCCOC)C1c1ccc2c(c1)OCO2 (stereo not given)
[A] 131
